These data points were gathered from patent US10239894B2.

Test: In vivo pharmacokinetics, rat clearance
Details: plasma, intravenous, male nonfasted Wistar Han rats, doses 1 mg/kg i.v. and 5 mg/kg p.o.
value-type: clearance (L/h/kg)

[[record]]
compound = "O=C(NCCNc1nonc1C(=NO)Nc1ccc(F)c(Br)c1)Nc1ccc(B(O)O)cc1 [Compound 9]"
endpoint_unit = "L/h/kg"
data_value = 14.3

[[record]]
compound = "ON=C(Nc1ccc(F)c(Br)c1)c1nonc1Nc1ccc(B(O)O)cc1 [Compound 10]"
endpoint_unit = "L/h/kg"
data_value = 13.2

[[record]]
compound = "CN(Cc1cccc2c1COB2O)C(=O)CNc1nonc1C(=NO)Nc1ccc(F)c(Br)c1 [Compound 5, 2,2,2-trifluoroacetate]"
endpoint_unit = "L/h/kg"
data_value = 0.168

[[record]]
compound = "O=C(NCCNc1nonc1C(=NO)Nc1ccc(F)c(Br)c1)c1ccc2c(c1)COB2O [Compound 8]"
endpoint_unit = "L/h/kg"
data_value = 4.49

[[record]]
compound = "O=C(NCCNc1nonc1C(=NO)Nc1ccc(F)c(Br)c1)c1ccc2c(c1)B(O)OCC2 [Compound 4]"
endpoint_unit = "L/h/kg"
data_value = 0.12

[[record]]
compound = "O=C(CN1CCOB2OCc3cccc1c32)NCCNc1nonc1C(=NO)Nc1ccc(F)c(Br)c1 [Compound 7]"
endpoint_unit = "L/h/kg"
data_value = 10.8


1 = O=C(NCCNc1nonc1C(=NO)Nc1ccc(F)c(Br)c1)c1ccc2c(c1)B(O)OC=C2 [Compound 3]
2 = O=C(NCCNc1nonc1C(=NO)Nc1ccc(F)c(Br)c1)c1cccc2c1B(O)OC2 [Compound 6]
Data request: Field: entry with larger clearance (options 1 / 2 ). State the label of the item chosen.
Data returned: 2

1 = O=C(NCCNc1nonc1C(=NO)Nc1ccc(F)c(Br)c1)c1cccc2c1B(O)OCC2 [Compound 1]
2 = NS(=O)(=O)NCCNc1nonc1C(=NO)Nc1ccc(F)c(Br)c1 [Compound 11, reference compound]
Data request: For the pair 1 and 2 , which member has the lower clearance number? State the label of the item chosen.
Data returned: 1
(1: 0.048 L/h/kg, 2: 3.04 L/h/kg)
